Each recorded value in this set is attributed to patent US4740233A.

# Tested on: yellow nutsedge
# measurement_notes: Preemergent control of plant species
# Format: in vivo, Cyperus esculentus
# condition_info: Cyperus, pre-emergence, 336 h; 0.25 lb/acre; read-out: percent preemergent control
// reported pest or weed control at 280.212 g/ha per item

{"columns": ["compound_smiles", "pest or weed control at 280.212 g/ha"],
 "data": [
  ["Cc1ccn2nc(S(=O)(=O)N(C(=O)C(C)(C)C)c3c(F)cccc3F)nc2n1", "100%"],
  ["Cc1cc(C(F)(F)F)n2nc(S(=O)(=O)Nc3c(Cl)ccc(C)c3Cl)nc2n1", "100%"],
  ["COc1nc2nc(S(=O)(=O)Nc3ccccc3C(F)(F)F)nn2cc1C", "70%"],
  ["CC(C)=NOC(=O)c1cccc(C)c1NS(=O)(=O)c1nc2nc(C)cc(C)n2n1", "50%"],
  ["CCCC(=O)N(c1c(F)cccc1F)S(=O)(=O)c1nc2nc(C)ccn2n1", "100%"],
  ["COC(=O)c1cccc(C)c1NS(=O)(=O)c1nc2nc(OC)c(C)cn2n1", "70%"],
  ["COc1nc2nc(S(=O)(=O)Nc3c(C)cccc3[N+](=O)[O-])nn2cc1C", "100%"],
  ["Cc1cc(C)n2nc(S(=O)(=O)Nc3c(F)cccc3C(=O)OC(C)C)nc2n1", "100%"]
]}

###

# System: sprangletop
# measurement_notes: Control of aquatic plant species (paddy water)
# Assay type: in vivo, Leptochloa filiformis
# condition_info: Leptochloa filiformis, 216 h; 0.25 Kg/Ha, nine days; read-out: Percent control
# Method: In testing for such utility, the plant species to be tested were transplanted into 16 oz. containers into about 2 inches of soil when they were in the 1-2 inch stage and then flooded to a depth of about 1 inch. An acetone concentrate of the chemical to be tested was then injected into the paddy water, the volume injected being varied as desired to provide the desired concentration. Percent control was evaluated nine days after application.
// reported pest or weed control at 250 g/ha per item

{"columns": ["compound_smiles", "pest or weed control at 250 g/ha, %"],
 "data": [
  ["Cc1cc(C)n2nc(S(=O)(=O)Nc3c(Cl)cccc3Cl)nc2n1", 30],
  ["Cc1cc(C)n2nc(S(=O)(=O)Nc3c(Br)cccc3Br)nc2n1", 85],
  ["CSc1ccccc1NS(=O)(=O)c1nc2nc(C)cc(C)n2n1", 80],
  ["Cc1ccnc2nc(S(=O)(=O)Nc3c(Cl)cccc3Cl)nn12", 0],
  ["Cc1cc(C)n2nc(S(=O)(=O)Nc3c(Cl)cccc3Br)nc2n1", 75],
  ["Cc1cc(C)n2nc(S(=O)(=O)Nc3c(F)cccc3F)nc2n1", 0],
  ["O=S(=O)(Nc1c(Cl)cccc1Cl)c1nc2ncc(Cl)cn2n1", 0],
  ["Cc1cc(C)n2nc(S(=O)(=O)Nc3ccccc3C(F)(F)F)nc2n1", 10]
]}

###

# Test system: annual morning glory
# measurement_notes: Postemergent control of plant species
# Format: in vivo, Ipomoea spp.
# condition_info: Ipomoea, post-emergence, 336 h, read-out: percent postemergent control
// reported pest or weed control at 500 ppm per item

{"columns": ["compound_smiles", "pest or weed control at 500 ppm (%)"],
 "data": [
  ["C=CCN(c1c(Cl)cccc1Cl)S(=O)(=O)c1nc2nc(C)cc(C)n2n1", 80],
  ["Cc1ccnc2nc(S(=O)(=O)Nc3c(Cl)cccc3Cl)nn12", 90],
  ["Cc1cc(C)n2nc(S(=O)(=O)Nc3c(C)ccc(Cl)c3Cl)nc2n1", 80],
  ["Cc1cc(C)n2nc(S(=O)(=O)Nc3ccccc3Cl)nc2n1", 90],
  ["O=S(=O)(Nc1c(F)cccc1F)c1nc2ncc(Cl)cn2n1", 80],
  ["Cc1cc(C)n2nc(S(=O)(=O)Nc3c(Cl)ccc4ccccc34)nc2n1", 80],
  ["Cc1cc(C)n2nc(S(=O)(=O)Nc3c(Cl)cc(Cl)cc3Cl)nc2n1", 40],
  ["Cc1cc(C)n2nc(S(=O)(=O)Nc3ccccc3S(C)(=O)=O)nc2n1", 10],
  ["O=S(=O)(Nc1ccccc1C(F)(F)F)c1nc2ncc(Cl)cn2n1", 70],
  ["COC(=O)c1cccc(C)c1N(C)S(=O)(=O)c1nc2nc(C)cc(C)n2n1", 90],
  ["COc1ccccc1NS(=O)(=O)c1nc2nc(C)cc(C)n2n1", 0],
  ["Cc1cccc(Cl)c1NS(=O)(=O)c1nc2ncc(Cl)cn2n1", 30]
]}

###

// reported pest or weed control at 280.212 g/ha per item
# Tested on: yellow nutsedge
# measurement_notes: Preemergent control of plant species
# Assay type: in vivo, Cyperus esculentus
# condition_info: Cyperus, pre-emergence, 336 h; 0.25 lb/acre; read-out: percent preemergent control
property_measured: pest or weed control at 280.212 g/ha (%)

{"columns": ["compound_smiles", "unit_spec", "value"],
 "data": [
  ["CCC(=O)N(c1c(F)cccc1F)S(=O)(=O)c1nc2nc(C)ccn2n1", "%", 100],
  ["COC(=O)c1cccc(C)c1NS(=O)(=O)c1nc2nc(C)cc(C)n2n1", "%", 99],
  ["Cc1cnc2nc(S(=O)(=O)Nc3c(Cl)cccc3Cl)nn2c1", "%", 90],
  ["CC(=O)c1cccc(C)c1NS(=O)(=O)c1nc2nc(C)ccn2n1", "%", 100],
  ["Cc1cc(C(F)(F)F)n2nc(S(=O)(=O)Nc3c(Cl)cccc3Cl)nc2n1", "%", 100],
  ["CC(=O)N(c1c(F)cccc1F)S(=O)(=O)c1nc2nc(C)ccn2n1", "%", 100],
  ["COc1ccn2nc(S(=O)(=O)Nc3c(Cl)cccc3Cl)nc2n1", "%", 60],
  ["Cc1cnc2nc(S(=O)(=O)Nc3c(Cl)ccc(C)c3Cl)nn2c1", "%", 95],
  ["Cc1cc(C)n2nc(S(=O)(=O)Nc3ccccc3[N+](=O)[O-])nc2n1", "%", 50]
]}

###

# Tested on: rape
# measurement_notes: Preemergent control of plant species
# Assay type: in vivo, Brassica napus
# condition_info: Brassica napus, pre-emergence, 336 h; 0.25 lb/acre; read-out: percent preemergent control

{"columns": ["compound_smiles", "unit_spec", "plant injury at 280.212 g/ha"],
 "data": [
  ["Cc1cc(C)n2nc(S(=O)(=O)Nc3c(Cl)cccc3Br)nc2n1", "%", 95],
  ["COc1cccc(C(F)(F)F)c1NS(=O)(=O)c1nc2ncccn2n1", "%", 100],
  ["COc1cccc(F)c1NS(=O)(=O)c1nc2nc(C)ccn2n1", "%", 100],
  ["COc1nc2nc(S(=O)(=O)Nc3c(Cl)ccc(C)c3Cl)nn2cc1C", "%", 100],
  ["CCCCC(=O)N(c1c(F)cccc1F)S(=O)(=O)c1nc2nc(C)ccn2n1", "%", 100],
  ["Cc1ccn2nc(S(=O)(=O)N(C(=O)c3ccccc3)c3c(F)cccc3F)nc2n1", "%", 100],
  ["COC(=O)c1cccc(C)c1NS(=O)(=O)c1nc2nc(OC)c(C)cn2n1", "%", 20],
  ["Cc1ccn2nc(S(=O)(=O)Nc3c(C)cccc3Cl)nc2n1", "%", 100],
  ["Cc1cc(C(F)(F)F)n2nc(S(=O)(=O)Nc3c(F)cccc3F)nc2n1", "%", 80],
  ["COc1cccc(C(F)(F)F)c1NS(=O)(=O)c1nc2nccc(C)n2n1", "%", 100],
  ["Cc1ccn2nc(S(=O)(=O)Nc3c(Cl)cccc3Cl)nc2n1", "%", 95],
  ["Cc1ccc(Cl)c(NS(=O)(=O)c2nc3ncccn3n2)c1Cl", "%", 100],
  ["Cc1cc(C(F)(F)F)n2nc(S(=O)(=O)Nc3c(F)ccc(C)c3F)nc2n1", "%", 90],
  ["Cc1ccnc2nc(S(=O)(=O)Nc3c(F)cccc3Cl)nn12", "%", 100],
  ["Cc1ccn2nc(S(=O)(=O)Nc3c(C)nn(C)c3C(F)(F)F)nc2n1", "%", 80],
  ["CC(=O)N(c1c(F)cccc1F)S(=O)(=O)c1nc2nc(C)ccn2n1", "%", 100],
  ["CCC(=O)N(c1c(F)cccc1F)S(=O)(=O)c1nc2nc(C)ccn2n1", "%", 100],
  ["C=CCOC(=O)c1cccc(C)c1NS(=O)(=O)c1nc2nc(C)cc(C)n2n1", "%", 100],
  ["CC(C)c1ccn2nc(S(=O)(=O)Nc3c(Cl)cccc3Cl)nc2n1", "%", 40],
  ["Cc1cc(C)n2nc(S(=O)(=O)Nc3ccccc3Br)nc2n1", "%", 80],
  ["Cc1cc(C)n2nc(S(=O)(=O)Nc3ccccc3I)nc2n1", "%", 100],
  ["Cc1ccn2nc(S(=O)(=O)N(C(=O)c3ccccc3)c3c(Cl)cccc3Cl)nc2n1", "%", 100],
  ["COc1nc2nc(S(=O)(=O)Nc3ccccc3C(F)(F)F)nn2cc1C", "%", 100],
  ["COc1nc2nc(S(=O)(=O)Nc3c([N+](=O)[O-])ccc(C)c3C)nn2cc1C", "%", 100],
  ["Cc1ccn2nc(S(=O)(=O)N(C(=O)CCCl)c3c(F)cccc3F)nc2n1", "%", 100],
  ["COc1nc2nc(S(=O)(=O)Nc3c(C)cccc3Cl)nn2cc1C", "%", 100],
  ["Cc1cc(C)n2nc(S(=O)(=O)Nc3cccc(Cl)c3Cl)nc2n1", "%", 95],
  ["Cc1cc(C)n2nc(S(=O)(=O)Nc3c(F)cccc3C(=O)OC(C)(C)C)nc2n1", "%", 100],
  ["COCc1cccc(Cl)c1NS(=O)(=O)c1nc2nc(C)cc(C)n2n1", "%", 100],
  ["CC(=O)N(c1c(Cl)cccc1Cl)S(=O)(=O)c1nc2nc(C)ccn2n1", "%", 100],
  ["Cc1cc(C(F)(F)F)n2nc(S(=O)(=O)Nc3c(Cl)cccc3Cl)nc2n1", "%", 100],
  ["COc1cc(C)n2nc(S(=O)(=O)Nc3c(Cl)cccc3Cl)nc2n1", "%", 80],
  ["Cc1cc(C)n2nc(S(=O)(=O)Nc3c(Cl)cccc3Cl)nc2n1", "%", 100],
  ["Cc1ccn2nc(S(=O)(=O)N(c3c(F)cccc3F)S(=O)(=O)c3ccccc3)nc2n1", "%", 100],
  ["Cc1cc(C)n2nc(S(=O)(=O)Nc3c(F)cccc3F)nc2n1", "%", 100],
  ["Cc1cc(C)n2nc(S(=O)(=O)Nc3ccccc3C(F)(F)F)nc2n1", "%", 98]
]}
